# target_desc: human MC4R (Homo sapiens, UniProt P32245)
# Construct: host or cells: HEK-293 cells stably expressing the GScAMP22F split-luciferase cAMP sensor and hMC4R, G418 selection
# Sequence (P32245 whole entry): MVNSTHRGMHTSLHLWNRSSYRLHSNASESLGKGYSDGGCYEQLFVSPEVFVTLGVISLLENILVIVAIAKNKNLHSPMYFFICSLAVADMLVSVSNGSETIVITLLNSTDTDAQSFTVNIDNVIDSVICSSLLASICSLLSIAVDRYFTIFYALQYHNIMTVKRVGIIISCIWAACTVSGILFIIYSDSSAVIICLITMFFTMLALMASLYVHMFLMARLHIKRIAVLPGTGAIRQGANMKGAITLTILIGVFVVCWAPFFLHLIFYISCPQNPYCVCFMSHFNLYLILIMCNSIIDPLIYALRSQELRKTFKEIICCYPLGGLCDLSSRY
# assay_summary: split-luciferase cAMP sensor assay, agonist mode (measurement window 1), hMC4R
# Format: cell-based
Positions of bridges follow the written chain, without caps; N, C: chain ends. Non-standard residues stand in square brackets, D forms with d. Residues, ends and D or L forms follow the SMILES beside them. dBip = N[C@H](Cc1ccc(-c2ccccc2)cc1)C(=O)O; Phe(4-Br) = N[C@@H](Cc1ccc(Br)cc1)C(=O)O; dPhe(4-Br) = N[C@H](Cc1ccc(Br)cc1)C(=O)O; d2Nal = N[C@H](Cc1ccc2ccccc2c1)C(=O)O; dTic = O=C(O)[C@H]1Cc2ccccc2CN1; Cit = NC(=O)NCCC[C@H](N)C(=O)O; Nle = CCCC[C@H](N)C(=O)O; dAbu = CC[C@@H](N)C(=O)O; Aib = CC(C)(N)C(=O)O
Please provide measured MC4R selectivity vs MC3R for the entries that follow.

In the examples that follow, each entry is paired with its recorded MC4R selectivity vs MC3R.
1) CC(=O)N[C@@H](CCCNC(=N)N)C(=O)N[C@H]1CSSC[C@@H](C(N)=O)NC(=O)[C@@H](Cc2c[nH]c3ccccc23)NC(=O)[C@H](CCCNC(=N)N)NC(=O)[C@@H](Cc2c[nH]c3ccccc23)NC(=O)[C@H](CCCNC(=N)N)NC(=O)[C@@H](C)NC1=O [CTX-1244] (Ac-RC[dA]R[dW]R[dW]C-NH2; disulfide 2-8 (inferred)) : 0.11
2) CC(=O)N[C@@H](CCCNC(=N)N)C(=O)N[C@H]1CSSC[C@@H](C(N)=O)NC(=O)[C@H](Cc2c[nH]c3ccccc23)NC(=O)[C@H](CCCNC(=N)N)NC(=O)[C@@H](Cc2ccc3ccccc3c2)NC(=O)[C@@H]2CCCN2C(=O)[C@@H](C)NC1=O [CTX-2203] (Ac-RC[dA]P[d2Nal]RWC-NH2; disulfide 2-8 (inferred)) : 2.45
3) CC(=O)N[C@@H](CCCNC(=N)N)C(=O)N[C@H]1CSSC[C@@H](C(N)=O)NC(=O)[C@@H](Cc2c[nH]c3ccccc23)NC(=O)[C@H](CCCNC(=N)N)NC(=O)[C@@H](Cc2ccc(-c3ccccc3)cc2)NC(=O)[C@H](CCCNC(=N)N)NC(=O)[C@@H](C)NC1=O [CTX-1243] (Ac-RC[dA]R[dBip]R[dW]C-NH2; disulfide 2-8 (inferred)) : 0.38
4) CC(=O)N[C@@H](CCCNC(=N)N)C(=O)N[C@H]1CSSC[C@@H](C(N)=O)NC(=O)[C@H](Cc2c[nH]c3ccccc23)NC(=O)[C@@H](CCCNC(=N)N)NC(=O)[C@@H](Cc2ccccc2)NC(=O)[C@H](CCCNC(=N)N)NC(=O)[C@@H](C)NC1=O [CTX-1282] (Ac-RC[dA]R[dF][dR]WC-NH2; disulfide 2-8 (inferred)) : 0.38
5) CC(=O)N[C@@H](CCCNC(=N)N)C(=O)N[C@H]1CSSC[C@@H](C(N)=O)NC(=O)[C@@H](Cc2c[nH]c3ccccc23)NC(=O)[C@H](CCCNC(=N)N)NC(=O)[C@H](Cc2ccc(Br)cc2)NC(=O)[C@H](CCCNC(=N)N)NC(=O)[C@@H](C)NC1=O [CTX-1215] (Ac-RC[dA]R[Phe(4-Br)]R[dW]C-NH2; disulfide 2-8 (inferred)) : 0.05
6) CC(=O)N[C@@H](CCCNC(=N)N)C(=O)N[C@H]1CSSC[C@@H](C(=O)N[C@@H](CCCCN)C(=O)N2CCC[C@H]2C(N)=O)NC(=O)[C@@H](Cc2c[nH]c3ccccc23)NC(=O)[C@H](CCCNC(=N)N)NC(=O)[C@@H](Cc2ccc(Br)cc2)NC(=O)[C@H](CCCNC(=N)N)NC(=O)[C@@H](C)NC1=O [CTX-1217] (Ac-RC[dA]R[dPhe(4-Br)]R[dW]CKP-NH2; disulfide 2-8) : 2.73

Dear reader, for each entry below, please note its MC4R selectivity vs MC3R.
1. CCCC[C@H](NC(=O)[C@H](CCCNC(=N)N)NC(C)=O)C(=O)N[C@H]1CSSC[C@@H](C(N)=O)NC(=O)[C@H](Cc2c[nH]c3ccccc23)NC(=O)[C@H](CCCNC(=N)N)NC(=O)[C@@H](Cc2ccc(Br)cc2)NC(=O)[C@H](CCCNC(=N)N)NC1=O [CTX-1612] (Ac-R[Nle]CR[dPhe(4-Br)]RWC-NH2; disulfide 3-8 (inferred))
2. CC(=O)N[C@@H](CCCNC(=N)N)C(=O)N[C@H]1CSSC[C@@H](C(N)=O)NC(=O)[C@@H](Cc2c[nH]c3ccccc23)NC(=O)[C@H](CCCNC(=N)N)NC(=O)[C@H]2Cc3ccccc3CN2C(=O)[C@H](CCCNC(=N)N)NC(=O)[C@@H](C)NC1=O [CTX-1273] (Ac-RC[dA]R[dTic]R[dW]C-NH2; disulfide 2-8)
3. COc1ccc(C[C@H]2NC(=O)[C@H](CCCNC(N)=O)NC(=O)C(C)(C)NC(=O)[C@@H](NC(=O)[C@H](CCCNC(=N)N)NC(C)=O)CSSC[C@@H](C(N)=O)NC(=O)[C@@H](Cc3c[nH]c4ccccc34)NC(=O)[C@H](CCCNC(=N)N)NC2=O)cc1 [CTX-1600] (Ac-RC[Aib][Cit][dY](Me)R[dW]C-NH2; disulfide 2-8)
4. CC(=O)N[C@@H](CCCNC(=N)N)C(=O)N[C@H]1CSSC[C@@H](C(N)=O)NC(=O)[C@@H](Cc2c[nH]c3ccccc23)NC(=O)[C@@H](CCCNC(=N)N)NC(=O)[C@@H](Cc2ccc(Br)cc2)NC(=O)[C@H](CCCNC(=N)N)NC(=O)[C@@H](C)NC1=O [CTX-1252] (Ac-RC[dA]R[dPhe(4-Br)][dR][dW]C-NH2; disulfide 2-8 (inferred))
5. CC(=O)N[C@@H](CCCNC(=N)N)C(=O)N[C@H]1CSSC[C@@H](C(N)=O)NC(=O)[C@H](Cc2c[nH]c3ccccc23)NC(=O)[C@H](CCCNC(=N)N)NC(=O)[C@@H](Cc2ccc(Br)cc2)NC(=O)[C@@H]2CCCN2C(=O)[C@@H](C)NC1=O [CTX-2204] (Ac-RC[dA]P[dPhe(4-Br)]RWC-NH2; disulfide 2-8 (inferred))
6. CC[C@H]1NC(=O)[C@@H](NC(=O)[C@H](CCCNC(=N)N)NC(C)=O)CSSC[C@@H](C(N)=O)NC(=O)[C@@H](Cc2c[nH]c3ccccc23)NC(=O)[C@H](CCCNC(=N)N)NC(=O)[C@@H](Cc2ccc(Br)cc2)NC(=O)[C@H](CCCNC(=N)N)NC1=O [CTX-1247] (Ac-RC[dAbu]R[dPhe(4-Br)]R[dW]C-NH2; disulfide 2-8 (inferred))

### Response
[2.27, 0.64, ">70", 0.06, 0.19, 2.05]
